# target of assay: RPS16 (UniProt P62249)
# measurement description: EC50 of free RNA motif oligo competing protein binding to immobilised probe
EC50 overview
Lab book: enter the figure in µM, no units written.

State the recorded EC50 for this entry: AAUAAA 0.764

New cases:
State the recorded EC50 for this entry: CUGUCCU 0.175

---

# target of assay: RPS3 (UniProt P23396)
# measurement description: EC50 of free RNA motif oligo competing protein binding to immobilised probe
property: pEC50
The scale used: pEC50 is minus the common logarithm of the concentration in molar units.

Form field - read-out: pEC50; system: RPS3 (UniProt P23396); submitted item: CUGUCCU 6.51

---

# target of assay: PIP5K1A (UniProt Q99755)
# Sequence (Q99755 whole entry): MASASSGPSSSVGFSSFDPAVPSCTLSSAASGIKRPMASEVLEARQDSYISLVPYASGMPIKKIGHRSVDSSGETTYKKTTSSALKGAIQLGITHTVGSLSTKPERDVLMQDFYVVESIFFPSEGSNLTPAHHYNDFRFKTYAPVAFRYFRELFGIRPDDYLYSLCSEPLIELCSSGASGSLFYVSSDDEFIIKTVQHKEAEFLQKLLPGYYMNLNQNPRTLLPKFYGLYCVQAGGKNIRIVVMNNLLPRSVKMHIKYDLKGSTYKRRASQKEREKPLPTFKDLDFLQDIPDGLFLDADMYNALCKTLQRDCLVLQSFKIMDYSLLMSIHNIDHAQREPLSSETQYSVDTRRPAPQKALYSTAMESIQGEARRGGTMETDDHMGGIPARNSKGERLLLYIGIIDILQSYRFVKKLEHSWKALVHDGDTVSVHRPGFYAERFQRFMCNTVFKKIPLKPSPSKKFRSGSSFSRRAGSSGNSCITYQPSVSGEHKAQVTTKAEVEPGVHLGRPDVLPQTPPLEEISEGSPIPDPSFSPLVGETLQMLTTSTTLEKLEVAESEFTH
# measurement description: Kd (EC50 corrected by depletion factor)
property: Kd

State the recorded Kd for this entry: AAUAAA 467 nM

---

# target of assay: SKIV2L2 (UniProt P42285)
# Sequence: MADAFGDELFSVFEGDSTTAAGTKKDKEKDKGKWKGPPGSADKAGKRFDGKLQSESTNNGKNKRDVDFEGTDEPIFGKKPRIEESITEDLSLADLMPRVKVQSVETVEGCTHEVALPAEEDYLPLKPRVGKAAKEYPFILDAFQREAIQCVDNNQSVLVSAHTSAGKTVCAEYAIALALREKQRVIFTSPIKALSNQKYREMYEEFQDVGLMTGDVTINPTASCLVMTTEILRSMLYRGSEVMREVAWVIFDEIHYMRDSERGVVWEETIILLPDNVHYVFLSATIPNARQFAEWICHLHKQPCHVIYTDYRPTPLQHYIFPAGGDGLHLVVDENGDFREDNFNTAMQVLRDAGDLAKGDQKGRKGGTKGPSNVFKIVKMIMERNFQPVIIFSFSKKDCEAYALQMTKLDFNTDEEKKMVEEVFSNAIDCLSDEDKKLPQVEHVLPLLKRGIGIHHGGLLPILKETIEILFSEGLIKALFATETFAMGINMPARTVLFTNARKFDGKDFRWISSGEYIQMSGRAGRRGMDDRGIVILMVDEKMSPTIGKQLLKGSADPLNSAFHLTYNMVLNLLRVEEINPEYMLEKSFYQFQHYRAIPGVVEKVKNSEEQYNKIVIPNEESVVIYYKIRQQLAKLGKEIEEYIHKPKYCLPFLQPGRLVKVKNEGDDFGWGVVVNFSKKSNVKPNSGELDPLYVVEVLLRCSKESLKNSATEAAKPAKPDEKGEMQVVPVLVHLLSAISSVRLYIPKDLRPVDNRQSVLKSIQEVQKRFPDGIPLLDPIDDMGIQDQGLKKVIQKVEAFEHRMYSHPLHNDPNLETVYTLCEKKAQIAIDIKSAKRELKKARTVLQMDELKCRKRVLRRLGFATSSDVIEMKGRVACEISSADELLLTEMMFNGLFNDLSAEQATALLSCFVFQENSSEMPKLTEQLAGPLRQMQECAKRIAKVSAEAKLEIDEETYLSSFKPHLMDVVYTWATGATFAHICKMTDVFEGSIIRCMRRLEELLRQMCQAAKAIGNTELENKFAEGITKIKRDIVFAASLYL
# measurement description: Kd (EC50 corrected by depletion factor)
Kd overview
Lab book: enter the figure in nM, no units written.

Form field - read-out: Kd; system: SKIV2L2 (UniProt P42285); submitted item: CUGUCCU 2450

Thanks! And AAUAAA ? 393

Switching to the query record.
Form field - read-out: Kd; system: SKIV2L2 (UniProt P42285); submitted item: UAUUUAU 202
